Cited source: patent US20220372033A1

system: Mycobacterium tuberculosis (Mtb) bacilli, strain H37Ra; experiment: Phenotypic assay of O2 consumption rate (OCR), Test 4, Seahorse XFe96, with Compound X; conditions: after Compound X 0.9 μM, test compound 10 μM and uncoupler CCCP 1 μM
measured endpoint: (ii) % OCR after cccp

>>> df
                                   compound                              study_system  assay_value
0  Cc1c(-c2ccc3cc(-c4cccc(OC(F)(F)F)c4)nn3c2)[nH]c2ccccc2c1=O [Compound 8]  Mycobacterium tuberculosis (Mtb) bacilli, strain H37Ra      93.125%
1  Cc1c(-c2ccc3nc(Cc4ccc(OC(F)(F)F)cc4)cn3c2)[nH]c2ccccc2c1=O  Mycobacterium tuberculosis (Mtb) bacilli, strain H37Ra       112.0%
2  CCc1nc2ccc(-c3[nH]c4ccccc4c(=O)c3C)cn2c1C(=O)NCc1ccc(OC(F)(F)F)cc1  Mycobacterium tuberculosis (Mtb) bacilli, strain H37Ra       110.6%
